Task for the reader: assign each of the following compounds its reported pIC50.
Biological target: human TTK (Homo sapiens)
Construct: amino terminal GST fusion of full length human TTK; purchased Invitrogen
Sequence (P33981 whole entry, the tested form may be a part): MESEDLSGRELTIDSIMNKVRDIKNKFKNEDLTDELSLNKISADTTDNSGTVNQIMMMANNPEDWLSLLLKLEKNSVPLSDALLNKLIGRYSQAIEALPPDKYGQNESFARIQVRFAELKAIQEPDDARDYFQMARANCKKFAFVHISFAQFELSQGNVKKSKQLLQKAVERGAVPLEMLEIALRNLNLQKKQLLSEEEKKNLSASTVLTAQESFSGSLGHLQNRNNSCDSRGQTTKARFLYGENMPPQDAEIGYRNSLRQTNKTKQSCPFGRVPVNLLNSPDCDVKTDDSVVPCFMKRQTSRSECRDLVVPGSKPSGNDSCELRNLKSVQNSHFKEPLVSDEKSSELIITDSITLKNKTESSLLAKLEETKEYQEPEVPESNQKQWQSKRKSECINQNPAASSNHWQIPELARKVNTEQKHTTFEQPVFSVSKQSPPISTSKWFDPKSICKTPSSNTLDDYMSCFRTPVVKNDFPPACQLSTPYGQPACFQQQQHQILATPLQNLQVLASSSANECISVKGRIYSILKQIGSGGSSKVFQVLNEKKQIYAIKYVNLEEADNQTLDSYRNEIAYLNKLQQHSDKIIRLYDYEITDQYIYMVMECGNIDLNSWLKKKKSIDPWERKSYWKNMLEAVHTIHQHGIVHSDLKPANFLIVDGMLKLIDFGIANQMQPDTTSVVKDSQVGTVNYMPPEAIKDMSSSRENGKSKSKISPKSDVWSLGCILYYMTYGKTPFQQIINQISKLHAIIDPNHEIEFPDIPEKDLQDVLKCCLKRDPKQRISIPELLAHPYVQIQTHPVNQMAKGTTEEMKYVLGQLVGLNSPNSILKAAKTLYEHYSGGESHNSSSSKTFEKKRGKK
Test: TTK inhibition assay (indirect ELISA)
Assay type: biochemical
Settings: read-out: TTK IC50 Range
pIC50: −log10 of the molar value.

# pIC50 of CN1C2CCC1CC(Oc1ccc(-c3n[nH]c4ccc(C(=O)N[C@H](c5ccsc5)C5CCCC5)cc34)cc1)C2 (stereo partly shown) = > 7.00

Just so you know, measured pIC50 for CN1CCC(Oc2ccc(-c3n[nH]c4ccc(C(=O)NCC5(c6cccnc6)CCCCC5)cc34)cc2)CC1 came out at > 7.00

Lookup result for CN1CCC(Oc2ccc(-c3n[nH]c4ccc(C(=O)NCC5(c6ccccn6)CCCCC5)cc34)cc2)CC1 ; measured pIC50: > 7.00

Just so you know, measured pIC50 for CC(C)CC(NC(=O)c1ccc2[nH]nc(-c3ccc(OC4CC5CCC(C4)N5C4COC4)cc3)c2c1)c1ccccn1 (stereo not shown) came out at > 7.00

Sure, the documented pIC50 for O=C(NCC1(c2ccccc2)CCCCC1)c1ccc2[nH]nc(-c3ccc(N4CCOCC4)cc3)c2c1 is > 7.00

Briefly, pIC50 measured for CC(C)(C)C[C@H](NC(=O)c1ccc2[nH]nc(-c3ccc(N4CCN(C5COC5)CC4)cc3)c2c1)c1ccccc1 : > 7.00

// sample CN1CCC(Nc2ccc(-c3n[nH]c4ccc(NC(=O)C(c5ccsc5)N5CCCC5)cc34)cc2)CC1 (stereo not shown) , its pIC50 was > 7.00
